Exercise: state measured pKd for each of the binders provided.
- test-target: T1, DFNB31_1, Q9P202
- T1 sequence (Q9P202 135-233, limits assumed, looked up): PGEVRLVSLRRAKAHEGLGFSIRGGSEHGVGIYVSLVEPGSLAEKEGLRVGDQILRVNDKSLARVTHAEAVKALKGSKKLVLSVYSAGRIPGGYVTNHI
- protocol-details: holdup assay
- Design: key: below the threshold = too weak to quantify, mostly under pKd 3.1 to 4
- experimental-context: plain residues with an end cap or a label only (N-terminal biotin on a linker: ado-ado)
One number for each entry.

binder	pKd
VYEVPVETKF [SLC26A3, P40879]	4.21
WAKEKQHTRL [SLC17A1, Q14916]	3.65
TNSKQGETTV [FZD1, Q9UP38]	3.77
PGKKPEDSRV [SLCO2B1, O94956]	3.67
SSSVNVSSNL [CXCR1, P25024]	3.56
GNDPDRGTSI [GRID2, O43424]	4.46

Here's the next entry for you.
Asked: Could you tell me which pKd is on file for KIEDVEITLV [FCHSD2, O94868] ?
Given back: 3.48
